So I've got a bunch of variants here, and I need their self-cleavage values.
B1: LINE1-full (parent)
chain: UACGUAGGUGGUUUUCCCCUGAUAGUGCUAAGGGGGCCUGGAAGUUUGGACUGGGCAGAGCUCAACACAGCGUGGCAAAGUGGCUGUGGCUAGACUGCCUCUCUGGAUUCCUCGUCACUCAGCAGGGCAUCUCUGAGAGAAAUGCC

variants of: B1; test: self-cleavage, relative activity (ratio to wild type); higher = more cleavage; in vitro, sequencing; the parent is a self-cleaving ribozyme
Answers are plain numbers.

Some variants with recorded self-cleavage:
RESIDUE CHANGE	QUANTITATIVE RESULT
G4A A140G	0.76
C61U G82A	0.02
U46A G58A	0.04
A92G U132C	0.05
A142C	0.53

# map each variant to its self-cleavage
1. C51A
2. G86C
3. G114C U115C
4. G86A U102C
5. A22G U132G

Resp:
1: 1.31; 2: 0.06; 3: 1.24; 4: 0.18; 5: 1.67
